Test system: Pseudomonas aeruginosa MDR R22 from China (V1)
Test: MIC assay, CAMHB with alginate oligomer, no visible growth
Assay type: cell-based
Settings: Pseudomonas aeruginosa, Table 1; V1 MDR R22 PA; OligoCF-5/20 0G; read-out: MIC
Quick reference for MIC among some molecules
Measurement Label: MIC (µg/mL)

| Molecule | Measurement Label | Numeric Readout |
| --- | --- | --- |
| CC(C)(O/N=C(\C(=O)N[C@@H]1C(=O)N2C(C(=O)[O-])=C(C[n+]3ccccc3)CS[C@H]12)c1csc(N)n1)C(=O)O [Ceftazidime] | MIC | 128 |
| O=C(O)c1cn(C2CC2)c2cc(N3CCNCC3)c(F)cc2c1=O [Ciprofloxacin] | MIC | 16 |
| C[C@H]1[C@H](NC(=O)/C(=N\OC(C)(C)C(=O)O)c2csc(N)n2)C(=O)N1S(=O)(=O)O [Aztreonam] | MIC | 32 |
| C[C@@H](O)[C@H]1C(=O)N2C(C(=O)O)=C(S[C@@H]3CN[C@H](C(=O)N(C)C)C3)[C@H](C)[C@H]12 [Meropenem] | MIC | 32 |
| CC[C@H]1OC(=O)[C@H](C)[C@@H](O[C@H]2C[C@@](C)(OC)[C@@H](O)[C@H](C)O2)[C@H](C)[C@@H](O[C@@H]2O[C@H](C)C[C@H](N(C)C)[C@H]2O)[C@](C)(O)C[C@@H](C)CN(C)[C@H](C)[C@@H](O)[C@]1(C)O [Azithromycin] | MIC | 64 |
